# STUDY TARGET: Estrogen receptor (Mus musculus) (UniProt O08537+P19785)
# Sequence (O08537 whole entry, looked up): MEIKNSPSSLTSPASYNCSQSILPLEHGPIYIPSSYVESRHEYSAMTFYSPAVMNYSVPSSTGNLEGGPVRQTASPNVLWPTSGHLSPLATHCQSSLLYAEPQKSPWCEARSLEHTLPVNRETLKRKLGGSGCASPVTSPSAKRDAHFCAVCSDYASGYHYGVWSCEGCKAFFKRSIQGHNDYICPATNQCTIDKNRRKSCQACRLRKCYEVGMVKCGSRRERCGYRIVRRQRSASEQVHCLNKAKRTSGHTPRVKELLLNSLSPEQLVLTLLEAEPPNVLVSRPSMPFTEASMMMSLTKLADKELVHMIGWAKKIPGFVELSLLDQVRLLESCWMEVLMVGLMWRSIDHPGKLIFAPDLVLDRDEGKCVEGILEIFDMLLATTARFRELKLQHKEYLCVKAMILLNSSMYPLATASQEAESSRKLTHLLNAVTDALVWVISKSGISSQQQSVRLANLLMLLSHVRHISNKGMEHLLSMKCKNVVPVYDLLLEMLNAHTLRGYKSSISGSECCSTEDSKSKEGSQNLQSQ
# Sequence (P19785 whole entry, looked up): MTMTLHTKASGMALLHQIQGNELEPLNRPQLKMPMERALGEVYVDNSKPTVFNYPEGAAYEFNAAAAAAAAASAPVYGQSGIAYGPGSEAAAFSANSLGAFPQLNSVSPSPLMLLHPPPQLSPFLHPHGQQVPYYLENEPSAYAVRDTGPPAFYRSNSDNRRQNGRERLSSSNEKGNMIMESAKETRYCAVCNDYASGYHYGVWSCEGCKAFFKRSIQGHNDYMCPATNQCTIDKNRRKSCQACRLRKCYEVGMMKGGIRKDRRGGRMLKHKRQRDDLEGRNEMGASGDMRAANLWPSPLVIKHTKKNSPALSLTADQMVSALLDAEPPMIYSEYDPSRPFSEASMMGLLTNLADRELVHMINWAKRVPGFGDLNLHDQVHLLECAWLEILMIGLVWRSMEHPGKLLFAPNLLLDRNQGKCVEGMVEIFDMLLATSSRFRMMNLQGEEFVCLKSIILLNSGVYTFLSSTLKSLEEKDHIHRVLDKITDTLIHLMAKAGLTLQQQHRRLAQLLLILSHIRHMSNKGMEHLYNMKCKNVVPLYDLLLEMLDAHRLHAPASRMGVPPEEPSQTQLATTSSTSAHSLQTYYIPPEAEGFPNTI
# ASSAY NAME: Percent inhibition of estrone-stimulated uterotrophic effect in mice at 250 ug dose
# Format: functional
MEASURED METRIC: inhibition (%)

>>> df
                                   molecule  measured_metric  readout_number
0  CCCCCC1Cc2cc(OC(C)=O)ccc2-c2c(C=O)c3ccc(OC(C)=O)cc3n21 (stereo not given)       inhibition              38
1  CCCC1Cc2cc(OC(C)=O)ccc2-c2c(C=O)c3ccc(OC(C)=O)cc3n21 (stereo not given)       inhibition              65
2  CC(=O)Oc1ccc2c(c1)CC(C)n1c-2c(C=O)c2ccc(OC(C)=O)cc21 (stereo not given)       inhibition              38

1 = CCCCC1Cc2cc(OC(C)=O)ccc2-c2c(C=O)c3cc(OC(C)=O)ccc3n21 (stereo not given)
2 = CCCCCC1Cc2cc(OC(C)=O)ccc2-c2c(C=O)c3cc(OC(C)=O)ccc3n21 (stereo not given)
-- ask Name the one with the greater inhibition value, either 1 or 2 as given. Identify your selection by its label.
-- reply 1

###

# STUDY TARGET: Estrogen receptor (Mus musculus) (UniProt O08537+P19785)
# ASSAY NAME: Percent inhibition of estrone-stimulated uterotrophic effect in mice at 250 ug dose
# Assay type: functional
MEASURED METRIC: inhibition (%)

Some compounds with known inhibition results, for comparison:
>>> print(df.to_string())
                                   compound  readout_number
0  CCCC1Cc2cc(OC(C)=O)ccc2-c2c(C=O)c3cc(OC(C)=O)ccc3n21 (stereo not given)              28
1  CCC1Cc2cc(OC(C)=O)ccc2-c2c(C=O)c3ccc(OC(C)=O)cc3n21 (stereo not given)              38
2  CCC1Cc2cc(OC(C)=O)ccc2-c2c(C=O)c3cc(OC(C)=O)ccc3n21 (stereo not given)              80

1 = CC(=O)Oc1ccc2c(c1)CC(C)n1c-2c(C=O)c2cc(OC(C)=O)ccc21 (stereo not given)
2 = CCCCC1Cc2cc(OC(C)=O)ccc2-c2c(C=O)c3ccc(OC(C)=O)cc3n21 (stereo not given)
-- ask Please compare: 1 and 2 . Report which one has the smaller inhibition value. Identify your selection by its label.
-- reply 2
(2: 19%, 1: 32%)

###

Reported Relative uterus weight values for a set of molecules
# STUDY TARGET: Estrogen receptor (Mus musculus) (UniProt O08537+P19785)
# ASSAY NAME: Anti-uterotrophic effect in mice as uterine weight(mg) relative to body weight(g) at 10 ug dose
# Type: functional
Respond with the number and no other words.

Some molecules with known Relative uterus weight results, for comparison:
In [3]: df
Out[3]:
                                   molecule  readout_number
0  CC(=O)Oc1ccc2c(c1)CC(C)n1c-2c(C=O)c2ccc(OC(C)=O)cc21 (centres undefined)            48.5
1  CCC1Cc2cc(OC(C)=O)ccc2-c2c(C=O)c3ccc(OC(C)=O)cc3n21 (centres undefined)              49
2  CCCCCC1Cc2cc(OC(C)=O)ccc2-c2c(C=O)c3ccc(OC(C)=O)cc3n21 (centres undefined)            46.4

-- ask Enter reported Relative uterus weight observed with Estrogen receptor (Mus musculus) (UniProt O08537+P19785) for CCCCCC1Cc2cc(OC(C)=O)ccc2-c2c(C=O)c3cc(OC(C)=O)ccc3n21 (centres undefined)
-- reply 51

-- ask Same again, this time with CCCC1Cc2cc(OC(C)=O)ccc2-c2c(C=O)c3cc(OC(C)=O)ccc3n21 (centres undefined)
-- reply 41.1

###

# STUDY TARGET: Estrogen receptor (Mus musculus) (UniProt O08537+P19785)
# ASSAY NAME: Anti-uterotrophic effect in mice as uterine weight(mg) relative to body weight(g) at 250 ug dose
# Assay type: functional
MEASURED METRIC: Relative uterus weight
Respond with the number and no other words.

-- ask Any idea what its Relative uterus weight is? The molecule is CC(=O)Oc1ccc2c(c1)CC(C)n1c-2c(C=O)c2ccc(OC(C)=O)cc21 (stereo not given)
-- reply 39.7

-- ask Same again, this time with CCCCC1Cc2cc(OC(C)=O)ccc2-c2c(C=O)c3ccc(OC(C)=O)cc3n21 (stereo not given)
-- reply 47.5

-- ask Same again, this time with CCCCC1Cc2cc(OC(C)=O)ccc2-c2c(C=O)c3cc(OC(C)=O)ccc3n21 (stereo not given)
-- reply 34.3

-- ask Same again, this time with CC(=O)Oc1ccc2c(c1)CC(C)n1c-2c(C=O)c2cc(OC(C)=O)ccc21 (stereo not given)
-- reply 44.4

###

Reported Relative uterus weight values for a set of molecules
# STUDY TARGET: Estrogen receptor (Mus musculus) (UniProt O08537+P19785)
# ASSAY NAME: Anti-uterotrophic effect in mice as uterine weight(mg) relative to body weight(g) at 50 ug dose
# Type: functional
Respond with the number and no other words.

Some molecules with known Relative uterus weight results, for comparison:
>>> df
                                   molecule                              study_target         measured_metric  readout_number
0  CCCC1Cc2cc(OC(C)=O)ccc2-c2c(C=O)c3cc(OC(C)=O)ccc3n21 (stereo not given)  Estrogen receptor (Mus musculus) (UniProt O08537+P19785)  Relative uterus weight            39.2
1  CCC1Cc2cc(OC(C)=O)ccc2-c2c(C=O)c3ccc(OC(C)=O)cc3n21 (stereo not given)  Estrogen receptor (Mus musculus) (UniProt O08537+P19785)  Relative uterus weight            44.2
2  CCCCC1Cc2cc(OC(C)=O)ccc2-c2c(C=O)c3cc(OC(C)=O)ccc3n21 (stereo not given)  Estrogen receptor (Mus musculus) (UniProt O08537+P19785)  Relative uterus weight            47.8
3  CCCCC1Cc2cc(OC(C)=O)ccc2-c2c(C=O)c3ccc(OC(C)=O)cc3n21 (stereo not given)  Estrogen receptor (Mus musculus) (UniProt O08537+P19785)  Relative uterus weight            51.8
4  CCC1Cc2cc(OC(C)=O)ccc2-c2c(C=O)c3cc(OC(C)=O)ccc3n21 (stereo not given)  Estrogen receptor (Mus musculus) (UniProt O08537+P19785)  Relative uterus weight              27

-- ask Enter reported Relative uterus weight observed with Estrogen receptor (Mus musculus) (UniProt O08537+P19785) for CCCC1Cc2cc(OC(C)=O)ccc2-c2c(C=O)c3ccc(OC(C)=O)cc3n21 (stereo not given)
-- reply 40.7

-- ask Same again, this time with CC(=O)Oc1ccc2c(c1)CC(C)n1c-2c(C=O)c2cc(OC(C)=O)ccc21 (stereo not given)
-- reply 36.5

-- ask Same again, this time with CCCCCC1Cc2cc(OC(C)=O)ccc2-c2c(C=O)c3cc(OC(C)=O)ccc3n21 (stereo not given)
-- reply 47.1

-- ask Same again, this time with CCCCCC1Cc2cc(OC(C)=O)ccc2-c2c(C=O)c3ccc(OC(C)=O)cc3n21 (stereo not given)
-- reply 35.6

-- ask Same again, this time with CC(=O)Oc1ccc2c(c1)CC(C)n1c-2c(C=O)c2ccc(OC(C)=O)cc21 (stereo not given)
-- reply 42.6

###

# STUDY TARGET: Estrogen receptor (Bos taurus) (UniProt Q9XSB5+P49884)
# ASSAY NAME: Relative binding affinity for calf uterine estrogen receptor compared to 17-beta-estradiol (E2)
# Type: protein assay
MEASURED METRIC: relative binding affinity (RBA)

Some compounds with known relative binding affinity (RBA) results, for comparison:
                                   compound  readout_number
0  CCCCC1Cc2cc(OC(C)=O)ccc2-c2c(C=O)c3ccc(OC(C)=O)cc3n21 (centres undefined)             0.7
1  CC(=O)Oc1ccc2c(c1)CC(C)n1c-2c(C=O)c2cc(OC(C)=O)ccc21 (centres undefined)             3.9

1 = CCCC1Cc2cc(OC(C)=O)ccc2-c2c(C=O)c3ccc(OC(C)=O)cc3n21 (centres undefined)
2 = CCC1Cc2cc(OC(C)=O)ccc2-c2c(C=O)c3ccc(OC(C)=O)cc3n21 (centres undefined)
-- ask Please compare: 1 and 2 . Report which one has the smaller relative binding affinity (RBA) value. Identify your selection by its label.
-- reply 1
(1: 0.5, 2: 1.3)

###

Reported T/C values for a set of molecules
# Tested on: MDA-MB-231
# ASSAY NAME: Inhibition of hormone-independent MDA-MB 231 mammary tumor cell proliferation at 1*10e-7 M
# Assay type: functional, Homo sapiens
Field format: number, assumed %, no unit text.

Some molecules with known T/C results, for comparison:
>>> df
                                   molecule  study_target  readout_number
0  CCCCCC1Cc2cc(OC(C)=O)ccc2-c2c(C=O)c3cc(OC(C)=O)ccc3n21 (centres undefined)    MDA-MB-231             105
1  CC(=O)Oc1ccc2c(c1)CC(C)n1c-2c(C=O)c2ccc(OC(C)=O)cc21 (centres undefined)    MDA-MB-231             109
2  CCCCC1Cc2cc(OC(C)=O)ccc2-c2c(C=O)c3cc(OC(C)=O)ccc3n21 (centres undefined)    MDA-MB-231             116

Moving on to another molecule below.
-- ask Any idea what its T/C is? The molecule is CCCC1Cc2cc(OC(C)=O)ccc2-c2c(C=O)c3ccc(OC(C)=O)cc3n21 (centres undefined)
-- reply 100
